Kindly state Percent Effect for each of the entries shown.
- TARGET_OR_TEST_SYSTEM: Protein translocase subunit SecA (Escherichia coli (strain K12)) (UniProt P10408)
- Sequence (P10408 whole entry): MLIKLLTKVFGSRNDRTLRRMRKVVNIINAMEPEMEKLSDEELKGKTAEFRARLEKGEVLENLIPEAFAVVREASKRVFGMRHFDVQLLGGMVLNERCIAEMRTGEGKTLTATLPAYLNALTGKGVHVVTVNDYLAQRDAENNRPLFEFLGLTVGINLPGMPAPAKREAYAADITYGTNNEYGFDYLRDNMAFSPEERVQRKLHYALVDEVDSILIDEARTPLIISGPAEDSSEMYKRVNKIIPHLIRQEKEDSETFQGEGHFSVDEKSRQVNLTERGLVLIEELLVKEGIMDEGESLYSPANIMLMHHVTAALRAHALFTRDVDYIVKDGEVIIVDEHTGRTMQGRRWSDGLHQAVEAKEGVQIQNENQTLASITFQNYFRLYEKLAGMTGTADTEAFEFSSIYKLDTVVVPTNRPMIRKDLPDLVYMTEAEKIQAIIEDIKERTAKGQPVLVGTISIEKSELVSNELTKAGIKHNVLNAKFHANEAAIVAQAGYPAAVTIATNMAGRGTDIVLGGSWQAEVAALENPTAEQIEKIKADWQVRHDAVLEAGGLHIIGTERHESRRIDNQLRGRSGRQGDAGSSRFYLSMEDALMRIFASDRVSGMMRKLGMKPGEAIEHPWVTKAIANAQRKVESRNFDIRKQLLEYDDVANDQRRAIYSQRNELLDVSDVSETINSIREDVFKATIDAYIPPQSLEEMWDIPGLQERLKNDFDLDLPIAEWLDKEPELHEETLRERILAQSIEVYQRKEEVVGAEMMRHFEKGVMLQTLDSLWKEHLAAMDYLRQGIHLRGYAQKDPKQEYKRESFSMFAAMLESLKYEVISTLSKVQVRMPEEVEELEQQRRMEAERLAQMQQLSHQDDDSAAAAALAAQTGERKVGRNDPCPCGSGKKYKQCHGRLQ
- ASSAY_EXPLANATION: Assay to Identify E. coli SecA ATPase Inhibitors
- Type: functional
- Design: scale not given: direction of the effect not stated beside the values
- EXPERIMENTAL_CONDITIONS: 30 µM
Results with a measured potency or affinity are listed apart.
Answers are plain numbers, in %.

| COMPOUND | TARGET_OR_TEST_SYSTEM | RECORDED_NUMBER |
| --- | --- | --- |
| CCC1CN(CC(=O)Nc2sccc2C#N)CCO1 (configuration not stated) | Protein translocase subunit SecA (Escherichia coli (strain K12)) (UniProt P10408) | -4.43 |
| Cc1cccc(-c2nc(C)nn2CC(=O)NC2CCCC2)c1 | Protein translocase subunit SecA (Escherichia coli (strain K12)) (UniProt P10408) | -5.38 |

For every item below, please supply its Percent Effect.
1. COc1ncccc1NC(=O)C1CCS(=O)(=O)C1 (configuration not stated)
2. O=C1N(Cc2cccc(F)c2F)CCCC1(O)CN1CCCOCC1 (configuration not stated)
3. O=C(c1cnn(-c2ccccc2F)c1)N1CCN(CCO)CC1
4. Cc1ccc(S(=O)(=O)N2C[C@H]3C[C@H](NC(=O)c4ccn(C)n4)[C@H]3C2)cc1
5. Cn1cnnc1C1CCCN(C(=O)Cc2ccc3c(c2)OCCO3)C1 (configuration not stated)

Ans.
-5.85
-6.11
-0.313
-7.65
-1.87

Please supply Percent Effect for each of the following items, keeping them in order.
1. COCc1cc(NCCc2ccc(F)cc2)n2nccc2n1
2. Cc1cc(NC(=O)CN2CCc3cnc(C)nc3C2)on1
3. CCn1cc(C(=O)NC2CCN(S(C)(=O)=O)CC2)c2ccccc21

Ans.
1: -5.32; 2: -3.81; 3: -3.22
